Provide the reported IC50 of each item.
Tested on: Plasmodium falciparum
Assay: Antimalarial activity against Plasmodium falciparum INDO
Type: functional, organism-based
Just the number in nM, nothing appended.

Task: Record lookup: for Plasmodium falciparum, what IC50 belongs to C=C(c1ccc(-c2cccc3ccccc23)cc1)C1COC2(CCCC2)OO1 (configuration not stated) ?
Output: 59

Task: Next record, please: C=C(c1ccc2c(c1)CCCC2)C1COC2(CCCCC2)OO1 (configuration not stated)
Output: 51

----------
System: Plasmodium falciparum
Assay: Antimalarial activity against Plasmodium falciparum K1
Format: functional, organism-based
Provide the reported IC50 of each item.
Just the number in nM, nothing appended.

Task: Record lookup: for Plasmodium falciparum, what IC50 belongs to Oc1ccc(C2CCC3(CC2)OOC2(OO3)C3CC4CC(C3)CC2C4)cc1CN1CCCC1 (stereo not given) ?
Output: 4.8

Task: Next record, please: C[C@H]1[C@H](NS(N)(=O)=O)O[C@@H]2O[C@]3(C)CC[C@H]4[C@H](C)CC[C@@H]1[C@@]24OO3
Output: 1.79

Task: Next record, please: C[C@@H]1CC[C@H]2[C@@H](C)C(=O)N(S(=O)(=O)c3ccc(C(F)(F)F)cc3)[C@@H]3O[C@]4(C)CC[C@@H]1[C@@]23OO4
Output: 3.15

Task: Next record, please: C[C@H]1C(=O)O[C@@H]2O[C@]3(C)CC[C@H]4N(Cc5ccc(OCCN6CCOCC6)cc5)CC[C@@H]1[C@@]24OO3
Output: 33

Task: Next record, please: COC(=O)CC[C@@H](C)[C@H]1CCC2C3CC[C@@H]4CC5(CC[C@]4(C)C3C[C@H](OC(C)=O)[C@@]21C)OOC(C)(C)OO5 (stereo not given in full)
Output: 3

Task: Next record, please: C[C@H]1[C@H](N2CCN(C(=O)Nc3ccc(F)cc3)CC2)O[C@@H]2O[C@]3(C)CC[C@H]4[C@H](C)CC[C@@H]1[C@@]24OO3
Output: 0.85

Task: Next record, please: CC1CC2CCC(C1)[C@@](C)(/C=C/[C@@H](O)C(C)(C)O)OO2 (stereo not given in full)
Output: 56

Task: Next record, please: CO[C@H]1O[C@@H]2O[C@@]3(C)CC[C@H]4[C@H](C)CC[C@@H]([C@H]1C)[C@@]24OO3
Output: 9

Task: Next record, please: C[C@H]1[C@H](N2CCN(C(=O)Nc3ccc(C(F)(F)F)cc3)CC2)O[C@@H]2O[C@]3(C)CC[C@H]4[C@H](C)CC[C@@H]1[C@@]24OO3
Output: 1.12

Task: Next record, please: COC(=O)CC[C@@H](C)[C@H]1CCC2C3CC[C@@H]4CC5(CC[C@]4(C)C3C[C@H](OC(C)=O)[C@@]21C)OOC(C)(C(F)(F)F)OO5 (stereo not given in full)
Output: 7.6

Task: Next record, please: CC1CC2CCC(C1)[C@@](C)(/C=C/[C@H](O)C(C)(C)O)OO2 (stereo not given in full)
Output: 115

Task: Next record, please: C[C@H]1[C@@H](OCc2ccc(C(=O)N(CCNc3ccnc4cc(Cl)ccc34)CC(=O)NC3CCCCC3)cc2)O[C@@H]2O[C@]3(C)CC[C@H]4[C@H](C)CC[C@@H]1[C@@]24OO3
Output: 23

Task: Next record, please: CC(C)CCC[C@H](C)C1CC[C@H]2[C@@H]3CC=C4C[C@@H](OC(=O)CCN5CCN([C@H]6O[C@@H]7O[C@]8(C)CC[C@H]9[C@H](C)CC[C@@H]([C@H]6C)[C@@]79OO8)CC5)CC[C@]4(C)[C@H]3CC[C@]12C (stereo not given in full)
Output: 29

Task: Next record, please: C[C@H]1C(=O)O[C@@H]2O[C@]3(C)CC[C@H]4N(Cc5ccccc5)CC[C@@H]1[C@@]24OO3
Output: 86

Task: Next record, please: CC(C)CCC[C@H](C)C1CC[C@H]2[C@@H]3CC=C4C[C@@H](OC(=O)CCCCCN5CCN([C@H]6O[C@@H]7O[C@]8(C)CC[C@H]9[C@H](C)CC[C@@H]([C@H]6C)[C@@]79OO8)CC5)CC[C@]4(C)[C@H]3CC[C@]12C (stereo not given in full)
Output: 52

Task: Next record, please: C[C@@H]1CC[C@H]2[C@@H](C)C(=O)N(S(=O)(=O)c3cccs3)[C@@H]3O[C@]4(C)CC[C@@H]1[C@@]23OO4
Output: 6.27

Task: Next record, please: C[C@H]1[C@H](N2CCN(C(=O)c3ccc(F)cc3)CC2)O[C@@H]2O[C@]3(C)CC[C@H]4[C@H](C)CC[C@@H]1[C@@]24OO3
Output: 2.1
